# Assayed Target: T1, mucin subtype 5AC (human, UniProt P98088 28-5654, limits assumed)
# T1 construct: Not a purified recombinant protein; also called MUC5AC; crude extract antigen solution
# Assay Comment: ELISA, plate coated with crude extract antigen solution of SW1990 xenograft tumor, HRP anti-human IgG
Measured Attribute: in vitro binding activity ratio to antibody 9 (fold vs antibody 9)
// return numeric value only (unit: fold vs antibody 9, not printed)

For orientation, consider the following solved cases.
# input Could you tell me which in vitro binding activity ratio to antibody 9 is on file for antibody 13 (antibody, V domains shown, Humanized antibody of the invention; also called H04L01) VH: EVQLLESGGGLVQPGGSLRLSCAVSGFTFSNYGMSWVRQAPGKGLEWVSTISNSGRYTYFPDSVKGRFTISRDNSRNTLYLQMNTLRAEDTAVYYCTRHLDYANYDAMDYWGQGTPVTVSS VL: DIVMTQSPSSLSASVGDRVTITCRASKSVTTSDFSYMHWYQQKPGKAPKLLIYLASNLESGVPSRFSGSGSGTDFTLTISSLQPEDFATYYCQHSREFPWTFGGGTKVEIK ?
# output 0.9

# input Note, next up: antibody 11 (antibody, V domains shown, Humanized antibody of the invention; also called H03L03) VH: LVQLVESGGGVVQPGRSLRLSCAASGFTFSNYGMSWVRQAPGKGLEWVATISNSGRYTYFPDSVKGRFTISRDNSKNTLYLQMNSLRAEDTAVYYCTRHLDYANYDAMDYWGQGTLVTVSS VL: DIQMTQSPSSLSASVGDRVTITCRASKSVTTSDFSYMHWYQQKPGKSPKLLIYLASNLESGVPSRFSGSGSGTDFSLTISSLQPEDFATYYCQHSREFPWTFGGGTKVEIK
# output 1.25

API: the following record is the query input.
# input Could you tell me which in vitro binding activity ratio to antibody 9 is on file for antibody 15 (antibody, V domains shown, Humanized antibody of the invention; also called H04L03) VH: EVQLLESGGGLVQPGGSLRLSCAVSGFTFSNYGMSWVRQAPGKGLEWVSTISNSGRYTYFPDSVKGRFTISRDNSRNTLYLQMNTLRAEDTAVYYCTRHLDYANYDAMDYWGQGTPVTVSS VL: DIQMTQSPSSLSASVGDRVTITCRASKSVTTSDFSYMHWYQQKPGKSPKLLIYLASNLESGVPSRFSGSGSGTDFSLTISSLQPEDFATYYCQHSREFPWTFGGGTKVEIK ?
# output 1.36

Source: patent US20220144927A1
